Sourced from patent US11267811B2

Below, each entry is listed alongside its reported pIC50.
target: His-tagged recombinant human Gal-3 (hGal-3) (Homo sapiens (Human), UniProt P17931); experiment: Gal-3 HTRF assay (His-tagged hGal-3 binding to B-ASF); conditions: HTRF, hGal-3 15 nM, B-ASF 15 nM; read-out: hGal-3 IC50;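 further: compounds preincubated 30 min with hGal-3, then 1 h with B-ASF, detection via terbium anti-His antibody and streptavidin d2. Control with B-ASF counts as full signal, omitting B-ASF as background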
Sequence (P17931 whole entry): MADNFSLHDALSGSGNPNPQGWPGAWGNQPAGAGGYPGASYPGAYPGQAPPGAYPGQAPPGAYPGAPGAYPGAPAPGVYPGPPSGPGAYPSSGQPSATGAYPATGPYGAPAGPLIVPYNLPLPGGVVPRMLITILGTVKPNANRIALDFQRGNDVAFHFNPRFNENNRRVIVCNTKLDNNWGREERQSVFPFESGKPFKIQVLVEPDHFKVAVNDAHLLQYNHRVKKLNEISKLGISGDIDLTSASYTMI
pIC50: −log10 of the molar value.
measurement-label: pIC50

- molecule: "Cc1nc2ccc(-n3c(C(N)=O)nnc3[C@@H]3O[C@H](CO)[C@H](O)[C@H](n4cc(-c5cc(F)c(F)c(F)c5)nn4)[C@H]3O)cc2s1 [Example 277]"
  readout-number: 7.40
- molecule: "Cc1nc2ccc(-n3cnnc3[C@@H]3O[C@H](CO)[C@H](O)[C@H](n4cc(-c5cc(F)c(F)c(F)c5)nn4)[C@H]3O)cc2n1C [Example 169]"
  readout-number: 6.55
- molecule: "CNC(=O)c1nc([C@H]2C[C@@H](n3cc(-c4cccc(F)c4)nn3)[C@@H](O)[C@@H](CO)O2)n(-c2ccc3nc(C)sc3c2)n1 [Example 271]"
  readout-number: 6.41
- molecule: "Cn1c(=O)sc2cc(-n3cnnc3[C@@H]3O[C@H](CO)[C@H](O)[C@H](n4cc(-c5cc(F)c(F)c(F)c5)nn4)[C@H]3O)ccc21 [Example 136]"
  readout-number: 6.51
- molecule: "OC[C@H]1O[C@@H](c2nncn2-c2ccc3nccnc3c2)[C@H](O)[C@@H](n2cc(-c3cc(F)c(F)c(F)c3)nn2)[C@H]1O [Example 124]"
  readout-number: 6.40
- molecule: "OC[C@H]1O[C@@H](c2ncnn2-c2cccc(Cl)c2)C[C@@H](n2cc(-c3cc(F)c(F)c(F)c3)nn2)[C@H]1O [Example 173]"
  readout-number: 6.74
